Measured values drawn from PubChem BioAssay AID1159580 for this set.

- Assay remarks: chemical genetic growth profiling, strain panel (AID 1159580);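 note: tested at 20 µM; growth read once vehicle control cultures reached saturation at 30 °C; 1 = growth at the plate median or of vehicle wells; lower values mean less growth of the strain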
- Condition label: S. cerevisiae deletion strains, growth OD, locus YDL074C, strain BRE1, active compounds read low
In all, about 5,500 compounds went through this assay and about 2,000 (36%) were called active. About 18% were inconclusive and are not listed. Some of the results follow.
// reported normalized growth per item
Returns: the value as a bare number; no unit string appended.

Summary for this molecule, OCCN1C[C@@H](O)[C@@H](O)C(O)C1CO (stereo not given in full) : normalized growth is 1.03

Summary for this molecule, "CC(C)(O)[C@@H]1[C@H]2OC(=O)[C@@H]1[C@]1(O)C[C@H]3O[C@]34C(=O)O[C@H]2[C@]14C" : normalized growth is 1.02

Summary for this molecule, CC(=O)OCC(=O)[C@@]1(O)CCC2C3CCC4=CC(=O)CC[C@]4(C)C3C(=O)C[C@@]21C (stereo not given in full) : normalized growth is 1.01

Summary for this molecule, "CN[C@@H](C)[C@@H](O)c1ccccc1" : normalized growth is 1.01

Now, please, on to the next molecule.
Summary for this molecule, "C=C(C)[C@@H]1[C@H]2OC(=O)[C@@H]1[C@]1(O)C[C@H]3O[C@]34C(=O)O[C@H]2[C@]14C" : normalized growth is 1.02

====

- Assay remarks: chemical genetic growth profiling, strain panel (AID 1159580);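 note: tested at 20 µM; growth read once vehicle control cultures reached saturation at 30 °C; 1 = growth at the plate median or of vehicle wells; lower values mean less growth of the strain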
- Condition label: S. cerevisiae deletion strains, growth OD, locus YOL136C, strain PFK27
Hit rate of the full screen: of about 5,500 compounds, about 2,000 (36%) were called active. Inconclusive results (about 18%) are left out. Rule as the data show it: active = normalized growth mostly below about 0.91 (no sharp cut-off); inconclusive = no clear call, values can overlap the other calls; inactive = mostly above about 0.92. Some of the results follow.
Respond only with the outcome that fits, drawn from active, inactive

Solved entries (count: 10):
Please share the test call associated with "Cc1cc(C(=O)NNc2ccc(F)cc2F)no1" . inactive

Please share the test call associated with "Cc1cc(C(=O)Nc2ccc(Cl)cc2)nn1C(C)(C)C" . inactive

Please share the test call associated with "Cc1cc(Cl)ccc1NNC(=O)c1ccno1" . inactive

Please share the test call associated with "Cc1cc(NNC(=O)c2ccccc2Cl)nc2c1c(C)nn2C" . inactive

Please share the test call associated with "O=C(N/C=C/c1ccsc1)Nc1cc(C(F)(F)F)cc(C(F)(F)F)c1" . active

Please share the test call associated with "Cc1nn(Cc2cccc(C(=O)Nc3ccc(Cl)cc3)c2)c(C)c1Br" . inactive

Please share the test call associated with "Cc1cc(Cl)ccc1NNC(=O)c1snnc1C" . inactive

Please share the test call associated with "CCOC(=O)CSC(=S)NCc1ccc(C)cc1" . inactive

Please share the test call associated with "CC(C)(C)CN/C(C#N)=C(/C#N)NCc1cccc(Cl)c1" . inactive

Please share the test call associated with "O=C(CSc1nnnn1-c1ccccc1)c1ccccc1" . active

---
Please share the test call associated with "Cc1ccc(-c2csc(-c3cccnc3)n2)c(C)c1" . inactive

Please share the test call associated with CS(=NC(=O)c1cccc(Cl)c1)c1ccc(OC(=O)c2ccc(Cl)cc2)cc1 (configuration not stated) . inactive

====

// reported normalized growth per item
- Assay remarks: chemical genetic growth profiling, strain panel (AID 1159580);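 note: tested at 20 µM; growth read once vehicle control cultures reached saturation at 30 °C; 1 = growth at the plate median or of vehicle wells; lower values mean less growth of the strain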
- Condition label: S. cerevisiae deletion strains, growth OD, strain wtn01, active compounds read low
Hit rate of the full screen: of about 5,500 compounds, about 2,000 (36%) were called active. Not shown: some 18% with an inconclusive outcome. This is one part of the list.
Returns: the value as a bare number; no unit string appended.

The cases that follow already have their normalized growth on record.
Summary for this compound, COc1cc2c(cc1OC)C1C(=O)c3c(O)cc4c(c3OC1CO2)C=CC(C)(C)O4 (stereo not given) : normalized growth is 1.01

Summary for this compound, CC(C(=O)O)c1cccc(C(=O)c2ccccc2)c1 (stereo not given) : normalized growth is 0.971

Summary for this compound, "CCOC(=O)c1c(C)cc(O)c(C=O)c1O" : normalized growth is 0.166

Summary for this compound, CCC(C)C(OC(C)=O)C(=O)OC1C(O)C2C3(C)C=CC(=O)C(C)(C)C3CC(OC(=O)C(O)C(C)C)C2(C)C23OC2CC(c2ccoc2)C13C (stereo not given) : normalized growth is 1

Summary for this compound, COc1ccc(OC)c(C(O)C(C)N)c1 (stereo not given) : normalized growth is 1.01

---
Summary for this compound, "COc1cc(NS(=O)(=O)c2ccc(N)cc2)nc(OC)n1" : normalized growth is 0.981

Summary for this compound, "CCOC(=O)c1c(C)cc(O)c(C)c1O" : normalized growth is 0.909

Summary for this compound, "Cc1cc(O)c(C=O)c(O)c1C(=O)O" : normalized growth is 1.04

Summary for this compound, CC(N)C(=O)OC(C)(C)Cc1ccc(Cl)cc1 (stereo not given) : normalized growth is 0.995

Summary for this compound, C[C@H]1OC(n2cc(F)c(=O)[nH]c2=O)C(O)[C@@H]1O (stereo not given in full) : normalized growth is 0.994

Summary for this compound, "O=C(O)c1cc2ccccc2[nH]1" : normalized growth is 1.01

Summary for this compound, "S=c1nc[nH]c2nc[nH]c12" : normalized growth is 0.978

Summary for this compound, "O=C(CC[N+](=O)[O-])OC[C@H]1O[C@@H](O)[C@H](OC(=O)CC[N+](=O)[O-])[C@@H](OC(=O)CC[N+](=O)[O-])[C@@H]1OC(=O)CC[N+](=O)[O-]" : normalized growth is 1.02

Summary for this compound, "COc1ccc2cc([C@H](C)CO)ccc2c1" : normalized growth is 0.968

Summary for this compound, "Cc1c(O)c(C(=O)CC(C)C)c2oc3c(C(=O)CC(C)C)c(O)c(C)c(O)c3c2c1O" : normalized growth is 0.975

Summary for this compound, "O=C(O)c1c2ccccc2cc2ccccc12" : normalized growth is 0.987

Summary for this compound, "CCOC(=O)CCC(=O)O[C@H]1[C@H](O[C@@H]2[C@@H](C)[C@H](O[C@H]3C[C@@](C)(OC)[C@@H](O)[C@H](C)O3)[C@@H](C)C(=O)O[C@H](CC)[C@@](C)(O)[C@H](O)[C@@H](C)C(=O)[C@H](C)C[C@@]2(C)O)O[C@H](C)C[C@@H]1N(C)C" : normalized growth is 0.99

Summary for this compound, "COC1=C(OC)C(=O)C(C/C=C(\C)CC/C=C(\C)CC/C=C(\C)CC/C=C(/C)CC/C=C(\C)CC/C=C(\C)CC/C=C(\C)CC/C=C(\C)CC/C=C(\C)CCC=C(C)C)=C(C)C1=O" : normalized growth is 1.02

Summary for this compound, ClC1=C(Cl)C2(Cl)C3C4C=CC(C4)C3C1(Cl)C2(Cl)Cl (stereo not given) : normalized growth is 0.983

Summary for this compound, "CC(=O)OC(C)(C)[C@@H]1Cc2cc3ccc(=O)oc3cc2O1" : normalized growth is 1.01

Summary for this compound, CC1(C)C(C=C(Cl)Cl)C1C(=O)OC(C#N)c1cccc(Oc2ccccc2)c1 (stereo not given) : normalized growth is 0.991

Summary for this compound, "CC(=O)c1c(O)c(C)c(O)c2c1oc1c(C(C)=O)c(O)c(C)c(O)c12" : normalized growth is 0.932

Summary for this compound, "CN1CCC(=C2c3ccccc3CC(=O)c3sccc32)CC1" : normalized growth is 1.01

Summary for this compound, "C[N+](C)(C)CCCCCC[N+](C)(C)C" : normalized growth is 0.982

====

- Assay remarks: chemical genetic growth profiling, strain panel (AID 1159580);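 note: tested at 20 µM; growth read once vehicle control cultures reached saturation at 30 °C; 1 = growth at the plate median or of vehicle wells; lower values mean less growth of the strain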
- Condition label: S. cerevisiae deletion strains, growth OD, locus YDR162C, strain NBP2, active compounds read low
The campaign covered roughly 5,500 compounds. About 2,000 (36%) were called active. Roughly 18% stayed inconclusive and do not appear here. Some of the results follow.
Metric: normalized growth
Returns: the value as a bare number; no unit string appended.

Summary for this compound, C[C@]12CC(=O)C3C(CC[C@@H]4C[C@H](O)CC[C@]34C)C1CC[C@]2(O)C(=O)CO (stereo not given in full) : normalized growth is 1.02

Summary for this compound, CC(CCc1ccccc1)NC(C)C(O)c1ccc(O)cc1 (stereo not given) : normalized growth is 0.991

Summary for this compound, "CC[C@H]1OC(=O)[C@H](C)[C@@H](O[C@H]2C[C@@](C)(OC)[C@@H](O)[C@H](C)O2)[C@H](C)[C@@H](O[C@@H]2O[C@H](C)C[C@H](N(C)C)[C@H]2O)[C@](C)(O)C[C@@H](C)CN(C)[C@H](C)[C@@H](O)[C@]1(C)O" : normalized growth is 1.01

Summary for this compound, CNC(C)[C@H](O)c1ccccc1 (stereo not given in full) : normalized growth is 1.02

Summary for this compound, O=C(O)C1(O)C[C@@H](O)C(O)[C@H](O)C1 (stereo not given in full) : normalized growth is 1.02

---
Summary for this compound, COCCc1ccc(OCC(O)CNC(C)C)cc1 (stereo not given) : normalized growth is 1

Summary for this compound, "CS(=O)(=O)c1ccc(C2=C(c3ccccc3)C(=O)OC2)cc1" : normalized growth is 0.979

Summary for this compound, "COc1cc(O)c(C(=O)/C=C/c2ccccc2)c(OC)c1" : normalized growth is 0.947

Summary for this compound, "COP(=O)(OC)OC=C(Cl)Cl" : normalized growth is 0.981

Summary for this compound, CC(N)CCCC(C)(C)O (stereo not given) : normalized growth is 1.01
